# inhibition at 20 µM per record follows
study-system: KRas G12C/Q61H double mutant (Homo sapiens (Human), UniProt P01116, G12C/Q61H)
Sequence (P01116-2 other isoform, or with tags, fused parts or gaps G12C/Q61H): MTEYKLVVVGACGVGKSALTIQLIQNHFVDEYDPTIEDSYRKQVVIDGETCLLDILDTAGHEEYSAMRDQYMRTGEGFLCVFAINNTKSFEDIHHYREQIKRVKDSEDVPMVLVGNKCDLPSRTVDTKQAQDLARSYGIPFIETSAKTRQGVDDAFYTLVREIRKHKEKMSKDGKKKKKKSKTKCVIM
experimental-protocol: Ras GTP binding domain inhibition assay (labeled GTP)
assay-setup: 20 μM compound; KRas G12C/Q61H double mutant; read-out: % Inhibition at 20 μM of K-Ras mutant and wild-type protein, KRas G12C Q61H
quantity-kind: inhibition at 20 µM

{"columns": ["compound", "measurement"],
 "data": [
  ["Oc1nc(-c2ccccn2)nc2c(CC3CCNCC3)csc12 [drawing 3486]", "51 to 75%"],
  ["COc1cnc(-c2cnc[nH]2)nc1O [drawing 3516]", "51 to 75%"],
  ["Cc1c(Br)sc2c(O)nc(-c3ccccn3)nc12 [drawing 3474]", "25 to 50%"],
  ["COc1nc(-c2ccccn2)nc(Oc2cccc(C(F)(F)F)c2)c1OC [drawing 3552]", "0%"],
  ["Oc1nc(-c2ccccn2)nc2c(-c3cnc4ccccc4c3)csc12 [drawing 3462]", "25 to 50%"],
  ["Oc1nc(-c2ccccn2)nc2c(-c3cc(CN4CCCC4)ccc3F)csc12 [drawing 3502]", "51 to 75%"],
  ["Cn1ccnc1-c1nc(O)c2c(-c3ccccc3)c(-c3ccccc3)sc2n1 [drawing 3536]", "1 to 25%"],
  ["CC(C)(C)c1sc2c(O)nc(-c3ccccn3)nc2c1Br [drawing 3554]", "25 to 50%"],
  ["COc1nc(-c2ccccn2)nc2c(C3CCCCC3)csc12 [drawing 3479]", "0%"],
  ["N#Cc1cccc(-c2csc3c(O)nc(-c4ccccn4)nc23)c1 [drawing 3503]", "1 to 25%"],
  ["Oc1nc(-c2ccccn2)nc2c(C3CC3)csc12 [drawing 3518]", "1 to 25%"],
  ["Cc1c(C(=O)O)sc2c(O)nc(-c3ccccn3)nc12 [drawing 3475]", "51 to 75%"],
  ["COc1cnc(C(C)(C)N)nc1O [drawing 3491]", "1 to 25%"],
  ["O=C(c1csc2c(O)nc(-c3ccccn3)nc12)N1CCNC(c2ccc(Cl)cc2)C1 (stereo not shown) [drawing 3525]", "51 to 75%"],
  ["Cc1cncc(-c2csc3c(O)nc(-c4ccccn4)nc23)c1 [drawing 3467]", "25 to 50%"],
  ["Oc1nc(-c2ccccn2)nc2c(-c3cncnc3)csc12 [drawing 3504]", "1 to 25%"],
  ["COc1cnc(CNC(=O)c2sc3c(O)nc(-c4ccccn4)nc3c2C)[nH]c1=O [drawing 3524]", "25 to 50%"],
  ["Cc1sc2c(O)nc(-c3ccccn3)nc2c1-c1cccnc1 [drawing 3468]", "51 to 75%"],
  ["O=C(NCCc1ccncn1)c1csc2nc(-c3ccccn3)nc(N3CCOCC3)c12 [drawing 3500]", "25 to 50%"]
]}
